tested-system: PAF receptor (Oryctolagus cuniculus, UniProt G1TEI7)
Sequence (G1TEI7 1-342): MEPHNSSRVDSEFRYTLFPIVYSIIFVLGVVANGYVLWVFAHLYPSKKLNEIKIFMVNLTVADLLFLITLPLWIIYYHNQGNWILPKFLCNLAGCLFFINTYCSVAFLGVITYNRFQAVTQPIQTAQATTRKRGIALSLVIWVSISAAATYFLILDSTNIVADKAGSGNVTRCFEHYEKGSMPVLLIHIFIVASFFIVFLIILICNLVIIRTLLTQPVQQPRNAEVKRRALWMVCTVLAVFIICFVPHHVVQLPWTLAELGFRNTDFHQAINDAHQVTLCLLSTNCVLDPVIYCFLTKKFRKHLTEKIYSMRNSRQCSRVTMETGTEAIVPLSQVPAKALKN
procedure-details: Inhibition of PAF induced platelet aggregation in washed rabbit platelets
Type: cell-based
Set-up: In some experiments, washed platelets were used instead of PRP; endogenous in cells; host or cells: washed rabbit platelets
run-conditions: calculated from IC50, [PAF] and EC50
pKi: −log10 of the molar value.
readout-label: pKi

compound	observed-result
CCCCCCCCCCCCCCCCOCC(COP(=O)([O-])Oc1cccc(C[n+]2ccsc2)c1)OC (stereo not shown)	8.10
CCCCCCCCCCCCCCCCCCNC(=O)OCC(COP(=O)([O-])Oc1ccccc1C[n+]1ccsc1)OC (stereo not shown)	8.14
CCCCCCCCCCCCCCCCOCC(COP(=O)([O-])Oc1cccc(C[n+]2csc(C)c2)c1)OC (stereo not shown)	7.82
CCCCCCCCCCCCCCc1cccc(OCC(COP(=O)([O-])Oc2cccc(C[n+]3ccsc3)c2)OC)c1 (stereo not shown)	8.85
